subjectOfTest: Signal transducer and activator of transcription 3 [702-738,740-752] (Homo sapiens, UniProt P40763)
Construct: 702-738,740-752
Sequence (P40763 as listed by the source): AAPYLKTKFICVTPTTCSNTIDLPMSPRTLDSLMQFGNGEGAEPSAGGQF
procedureDetails: dose response, counter-screen for STAT1 inhibitor project (AID 1409)
pIC50: −log10 of the molar value.

recordSmiles: CCN1C(=O)C(=CNNC(=O)c2ccncc2)C(=O)N(CC)C1=S
pIC50: < 4.25
